// data source = ChEMBL document CHEMBL4483862

System: Plasmodium berghei
Method: Luciferase/luciferin-expressing antifolate-resistant parasites were used to infect a culture of HepG2 cells that were pre-incubated with compounds. Infected hepatocytes emit light due to the luciferase reaction. Assay results are presented as the percent inhibition of light emission compared to control. […]
Format: functional
Condition details: sporozoite, HEPG2TOX_HILL_SLOPE 14.9, HEPG2TOX_R_SQUARED 0.872, PBLUC_HILL_SLOPE 4.15, PBLUC_R_SQUARED 0.429, read-out: LUCIFERASE INFECTION ASSAY - IC50
Value type: pIC50
FYI, pIC50 means -log10 of a concentration in mol per litre.

Can you look up the measured pIC50 of O=C(NCCCn1cnc2ccccc21)c1[nH]nc2ccccc12 for me?
5.20
